# ASSAY EXPLANATION: OD615 S. cerevisiae growth inhibition, permissive medium, pilot counter-assay, permissive growth control for S. cerevisiae lifespan shortening project (AID 705)
# MEASUREMENT PARAMETERS: OD615, 24 h, at 10 µM, stronger effect = higher value
Below, each of the molecules is paired with its reported growth inhibition value.
MEASURED PARAMETER: growth inhibition (%)

[
  {
    "MOLECULE": "CN(C)c1nc(N)nc(-c2ccco2)n1",
    "OBSERVED MEASUREMENT": 3.19
  },
  {
    "MOLECULE": "COC(=O)C1(C)Nc2ccccc2C(=O)N1c1ccccc1OC (stereo unspecified)",
    "OBSERVED MEASUREMENT": -17
  },
  {
    "MOLECULE": "O=C(NC1CCCc2ccccc21)C1CCN(c2c(N3CCCC3)c(=O)c2=O)CC1 (stereo unspecified)",
    "OBSERVED MEASUREMENT": -5.2
  },
  {
    "MOLECULE": "CC(C)Sc1nc2c(c(=O)n1C)SC(C)C2 (stereo unspecified)",
    "OBSERVED MEASUREMENT": -7.53
  },
  {
    "MOLECULE": "CCOc1ccccc1NC(=O)CN(c1cc(C)cc(C)c1)S(=O)(=O)c1c(C)noc1C",
    "OBSERVED MEASUREMENT": -22.6
  },
  {
    "MOLECULE": "CCCc1cc(=O)oc2cc(OCC(=O)N(C)C)c(Cl)cc12",
    "OBSERVED MEASUREMENT": -3.68
  }
]
